assay.overview: solvent given as SMILES
assay.context: in CCCCCCCCO
Mark YES for reported fluorescence lifetime of 5 ns or greater; mark NO for anything smaller.

compound | label.class
CCN(CC)c1ccc2c(-c3ccccc3C(=O)[O-])c3ccc(=[N+](CC)CC)cc-3oc2c1 | NO
CN(C)c1ccc(/C=C/c2cc[n+](Cc3cc(C[n+]4ccc(/C=C/c5ccc(N(C)C)cc5)cc4)cc(C[n+]4ccc(/C=C/c5ccc(N(C)C)cc5)cc4)c3)cc2)cc1 | NO
CCNc1cc2oc3c/c(=[NH+]\CC)c(C)cc-3c(-c3ccccc3C(=O)OCC)c2cc1C | NO
O=C1c2ccccc2-c2ccc(N3CCN(c4ccccc4)CC3)c3cccc1c23 | NO
O=C([O-])c1ccccc1C1=c2cc3c4c(c2Oc2c1cc1c5c2CCCN5CCC1)CCC[N+]=4CCC3 | NO
O=C(O)COc1ccc2[nH]c3c(c2c1)CCCC3=O | NO
Nc1ccc2c(C(F)(F)F)cc(=O)oc2c1 | YES
COc1ccc(C#Cc2c3ccccc3c3n2[B-](F)(F)[N+]2=C(C)C=C(C)C2=C3)cc1 | NO

Query block: Check this compound for fluorescence lifetime at or above 5 ns: CCN(CC)c1ccc2c(c1)OC1=CC(N(CC)CC)C=CC1[C+]2c1ccccc1C(=O)O (configuration not stated)
Result block: NO

Query block: Check this compound for fluorescence lifetime at or above 5 ns: `CN1CCN(c2ccc3c4c(cccc24)C(=O)c2ccccc2-3)CC1`
Result block: YES

---

# log10(fluorescence lifetime) per record follows
assay.overview: solvent given as SMILES
assay.context: in Cc1ccccc1
Please be aware that the numbers have been log10-transformed from fluorescence lifetime in ns.

The cases that follow already have their log10(fluorescence lifetime) on record.
compound | log10(fluorescence lifetime)
N#CC(C#N)=C(c1ccc(-n2ccc3ccccc32)cc1)c1ccc(-n2ccc3ccccc32)cc1 | 0.72
CCCCCCCCN1c2ccc(C#Cc3ccc(OC)cc3)cc2Sc2cc(C=O)ccc21 | 0.87

Query block: Would you mind telling me what log10(fluorescence lifetime) value was observed for `CCCCCCN(CCCCCC)c1ccc(C#Cc2ccc(-c3ccc(C#Cc4ccc(N(CCCCCC)CCCCCC)cc4)cc3)cc2)cc1` ?
Result block: 0.00

---

assay.overview: solvent given as SMILES
assay.context: in ClC(Cl)Cl
measured.attribute: fluorescence lifetime
Number first, unit second: that is the form wanted.

The cases that follow already have their fluorescence lifetime on record.
structure.string | fluorescence lifetime
N#Cc1ccc(C#Cc2ccc(C#Cc3ccccc3C#N)cc2C#N)cc1 | 1.83 ns
CC1=CC(C)=[N+]2C1=C(c1ccc(I)cc1)c1c(C)cc(C)n1[B-]21OCCO1 | 0.93 ns
CCCCCCn1c2cc(/C=C(\C#N)c3ccccc3)ccc2c2ccc(/C=C(\C#N)c3ccccc3)cc21 | 0.58 ns
COc1ccc(C#Cc2ccc(C#Cc3ccc(P(=O)(c4ccc(C#Cc5ccc(C#Cc6ccc(OC)cc6)cc5)cc4)c4ccc(C#Cc5ccc(C#Cc6ccc(OC)cc6)cc5)cc4)cc3)cc2)cc1 | 0.74 ns
CCc1ccc(-c2nc(-c3ccc(-n4c5ccccc5c5ccccc54)cc3)cc(-c3ccc(-n4c5ccccc5c5ccccc54)cc3)n2)cc1 | 3.57 ns

Could you now look at the following molecule, please?
Query block: Would you mind telling me what fluorescence lifetime value was observed for `CC1(C)C(/C=C/C2=C(c3ccc(C(=O)O)cc3)C(=C/C=C3/N(CCCCS(=O)(=O)[O-])c4ccccc4C3(C)C)/CC2)=[N+](CCCCS(=O)(=O)[O-])c2ccccc21` ?
Result block: 1.25 ns

src = the Deep4Chem optical property database
